Target: Integrin alpha-v beta-3 (UniProt P06756;P05106 P06756:31-992,P05106:27-718)
Sequence (P06756 31-992, chain 1 of 2): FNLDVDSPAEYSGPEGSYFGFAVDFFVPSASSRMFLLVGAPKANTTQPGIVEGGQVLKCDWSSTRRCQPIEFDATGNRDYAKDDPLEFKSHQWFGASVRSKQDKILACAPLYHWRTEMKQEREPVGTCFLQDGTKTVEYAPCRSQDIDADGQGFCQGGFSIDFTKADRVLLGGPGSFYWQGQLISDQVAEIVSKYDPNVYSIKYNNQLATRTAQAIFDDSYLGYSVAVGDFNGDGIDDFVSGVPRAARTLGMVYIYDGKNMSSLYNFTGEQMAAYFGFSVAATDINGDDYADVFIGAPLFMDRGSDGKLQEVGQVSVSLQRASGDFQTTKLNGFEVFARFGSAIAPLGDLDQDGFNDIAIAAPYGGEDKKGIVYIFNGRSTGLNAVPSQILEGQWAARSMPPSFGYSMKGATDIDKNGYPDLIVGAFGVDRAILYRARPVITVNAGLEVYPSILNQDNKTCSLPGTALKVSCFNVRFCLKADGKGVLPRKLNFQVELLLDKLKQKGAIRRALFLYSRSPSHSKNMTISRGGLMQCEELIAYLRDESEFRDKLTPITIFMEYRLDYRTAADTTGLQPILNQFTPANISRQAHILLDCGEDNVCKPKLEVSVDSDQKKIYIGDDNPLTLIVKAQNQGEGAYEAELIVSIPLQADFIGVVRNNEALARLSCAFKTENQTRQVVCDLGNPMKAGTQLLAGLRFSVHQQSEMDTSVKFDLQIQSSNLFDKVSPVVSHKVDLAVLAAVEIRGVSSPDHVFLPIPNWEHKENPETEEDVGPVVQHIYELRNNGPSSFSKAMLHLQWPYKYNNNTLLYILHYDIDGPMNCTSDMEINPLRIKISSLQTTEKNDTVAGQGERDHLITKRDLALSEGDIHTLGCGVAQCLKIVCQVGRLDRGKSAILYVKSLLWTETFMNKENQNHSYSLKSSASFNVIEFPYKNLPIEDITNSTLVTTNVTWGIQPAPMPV
Sequence (P05106 27-718, chain 2 of 2): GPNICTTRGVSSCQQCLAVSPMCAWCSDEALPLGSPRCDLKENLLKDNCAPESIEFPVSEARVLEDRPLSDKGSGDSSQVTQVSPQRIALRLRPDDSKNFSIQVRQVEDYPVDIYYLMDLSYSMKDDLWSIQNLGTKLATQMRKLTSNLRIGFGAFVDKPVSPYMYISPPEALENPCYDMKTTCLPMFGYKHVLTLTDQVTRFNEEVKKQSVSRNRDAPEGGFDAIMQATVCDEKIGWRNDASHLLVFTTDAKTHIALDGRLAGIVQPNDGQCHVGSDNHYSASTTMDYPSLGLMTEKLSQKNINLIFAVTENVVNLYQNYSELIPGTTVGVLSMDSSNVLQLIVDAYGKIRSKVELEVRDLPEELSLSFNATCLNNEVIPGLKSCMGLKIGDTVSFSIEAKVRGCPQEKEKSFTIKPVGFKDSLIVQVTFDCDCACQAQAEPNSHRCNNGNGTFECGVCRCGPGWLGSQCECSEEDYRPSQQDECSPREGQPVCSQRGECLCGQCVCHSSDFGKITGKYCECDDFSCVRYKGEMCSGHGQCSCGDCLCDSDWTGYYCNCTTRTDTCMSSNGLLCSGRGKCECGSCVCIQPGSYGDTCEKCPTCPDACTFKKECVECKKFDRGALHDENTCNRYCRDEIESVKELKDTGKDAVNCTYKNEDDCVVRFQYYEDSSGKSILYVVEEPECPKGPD
Test: filter; Bmax 0.69; HEPES, NaCl, KCl, MgCl2 buffer, 37 C
Conditions: tags: R&D Systems 3050-AV
Parameter Measured: Kd (nM)
Numbers only here, please. The scale is nM.

The value of Kd measured for the binder Clone #12 (S003-A4-012-T7_D02), full length (ssDNA, n in core = 5-(N-benzylaminocarbonyl)-2'-deoxyuridine (BzdU) [n positions 21,22,28,29,30,37,42,46,47,48,49,56 = modified dU]) DNA: TCAGCCGCCAGCCAGTTCAGTTGCCAATTTGCAGCCTAGGATACGTTTTCGAAACTGCAGACCAGAGCACCACAGAG turned out to be 23.2
